// provenance: ChEMBL document CHEMBL1145197

# target under test: ATP-dependent translocase ABCB1 (Homo sapiens, UniProt P08183)
# Sequence (P08183 whole entry): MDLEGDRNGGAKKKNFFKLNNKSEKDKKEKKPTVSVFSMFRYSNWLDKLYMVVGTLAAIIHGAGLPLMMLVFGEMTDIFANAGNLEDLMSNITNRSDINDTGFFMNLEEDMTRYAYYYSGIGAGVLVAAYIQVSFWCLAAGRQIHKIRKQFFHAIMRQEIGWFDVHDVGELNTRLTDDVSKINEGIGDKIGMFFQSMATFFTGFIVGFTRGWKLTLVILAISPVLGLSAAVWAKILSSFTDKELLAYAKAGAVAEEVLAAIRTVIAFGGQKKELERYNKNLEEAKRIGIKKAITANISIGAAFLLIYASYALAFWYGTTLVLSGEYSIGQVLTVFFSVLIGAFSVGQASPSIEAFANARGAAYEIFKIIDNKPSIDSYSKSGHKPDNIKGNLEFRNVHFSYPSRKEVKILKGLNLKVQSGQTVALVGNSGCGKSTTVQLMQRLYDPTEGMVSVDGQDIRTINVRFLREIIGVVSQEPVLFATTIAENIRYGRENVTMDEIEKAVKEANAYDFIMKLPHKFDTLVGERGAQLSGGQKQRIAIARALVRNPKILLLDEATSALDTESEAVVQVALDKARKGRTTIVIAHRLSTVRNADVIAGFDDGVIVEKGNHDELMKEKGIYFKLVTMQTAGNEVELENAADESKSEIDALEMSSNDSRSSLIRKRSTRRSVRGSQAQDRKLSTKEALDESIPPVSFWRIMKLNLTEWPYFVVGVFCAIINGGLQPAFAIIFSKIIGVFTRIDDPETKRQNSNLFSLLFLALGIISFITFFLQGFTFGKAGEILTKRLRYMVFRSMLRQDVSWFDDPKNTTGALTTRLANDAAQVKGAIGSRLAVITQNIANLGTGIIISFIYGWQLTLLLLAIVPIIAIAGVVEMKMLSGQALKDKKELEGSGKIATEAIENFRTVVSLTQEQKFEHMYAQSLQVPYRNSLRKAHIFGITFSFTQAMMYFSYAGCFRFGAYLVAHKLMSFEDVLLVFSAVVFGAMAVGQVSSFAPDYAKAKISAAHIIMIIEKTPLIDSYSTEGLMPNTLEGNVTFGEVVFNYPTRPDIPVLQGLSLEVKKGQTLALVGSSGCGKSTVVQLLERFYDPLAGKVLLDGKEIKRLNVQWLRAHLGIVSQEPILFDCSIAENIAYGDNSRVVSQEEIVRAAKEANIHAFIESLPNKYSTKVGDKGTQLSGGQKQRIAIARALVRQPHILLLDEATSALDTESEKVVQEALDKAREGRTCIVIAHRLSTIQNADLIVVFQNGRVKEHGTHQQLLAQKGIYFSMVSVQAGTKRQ
# method summary: Membrane passage was expressed as mean percentage of compound transported from bottom to top and from top to bottom at 3 hr after adding the compound
# Assay type: functional
For each record, write down the corresponding Transport.
One number for each entry, in %.

compound	Transport, %
Cc1c(C(=O)NN2CCCCC2)nc(-c2ccc(Cl)cc2Cl)n1-c1ccc(Cl)cc1	24.2
Cc1c(C(=O)NN2CCCCC2)nn(-c2ccc(Cl)cc2Cl)c1-c1ccc(Cl)cc1 [RIMONABANT]	17.2
Cl.Cl.O=C(NN1CCCCC1)c1nc(-c2ccc(Cl)cc2Cl)n(-c2ccc(Cl)cc2)n1	28.3

If you can, please state the reported Transport value of O=C(NN1CCCCC1)c1nc(-c2ccc(Cl)cc2Cl)c(-c2ccc(Cl)cc2)s1 .
8.3

====

# target under test: Cannabinoid receptor 1 (Homo sapiens, UniProt P21554)
# Sequence (P21554 whole entry): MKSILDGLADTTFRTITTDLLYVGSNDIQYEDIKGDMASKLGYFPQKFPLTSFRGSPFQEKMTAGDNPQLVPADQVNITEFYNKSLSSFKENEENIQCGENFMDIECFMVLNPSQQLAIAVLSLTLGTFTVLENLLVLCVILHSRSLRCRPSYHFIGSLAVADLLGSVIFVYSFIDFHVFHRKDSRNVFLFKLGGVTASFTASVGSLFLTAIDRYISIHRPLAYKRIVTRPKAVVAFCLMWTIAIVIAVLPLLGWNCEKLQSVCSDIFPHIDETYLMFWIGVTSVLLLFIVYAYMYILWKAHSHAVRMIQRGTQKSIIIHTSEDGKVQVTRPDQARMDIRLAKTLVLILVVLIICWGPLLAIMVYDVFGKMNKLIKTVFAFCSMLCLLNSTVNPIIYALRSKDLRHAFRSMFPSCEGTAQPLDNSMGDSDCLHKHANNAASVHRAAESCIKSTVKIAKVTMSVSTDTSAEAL
# method summary: In vitro cannabinoid receptor 1 antagonism of [3H]arachidonic acid release by CHO cells
# Format: functional, cell-based
# cond: read-out: pA2 (converted)
API: label(entry) gives fulfilled if the entry's Kb is strictly smaller than 2 nM; on equality or larger values it gives not fulfilled.

Before answering, review these 2 worked examples.
compound	assigned class
CCc1c(C(=O)NN2CCCCC2)nc(-c2ccc(Cl)cc2Cl)n1-c1ccc(Cl)cc1	fulfilled
O=C(NN1CCCCC1)c1nc(-c2ccc(Cl)cc2Cl)c(-c2ccc(Cl)cc2)s1	not fulfilled

Alright, here's another compound for you.
A record lists Cc1c(C(=O)NC2CC3CCC2C3)nc(-c2ccc(Cl)cc2Cl)n1-c1ccc(Cl)cc1 (stereo unspecified) . Is its Kb below 2 nM?
fulfilled

====

// values below are pKi; system is Cannabinoid receptor 2 (Homo sapiens)
Numbers only, as −log10 of the molar value.

// solved cases for pKi follow
compound	target under test	pKi
Cc1c(C(=O)NC2CC3CCC2C3)nc(-c2ccc(Cl)cc2Cl)n1-c1ccc(Cl)cc1 (stereo not given)	Cannabinoid receptor 2 (Homo sapiens)	7.27
Cc1c(C(=O)NN2CCCCC2)nc(-c2ccc(Cl)cc2Cl)n1-c1ccc(Cl)cc1	Cannabinoid receptor 2 (Homo sapiens)	6.22
Cc1c(C(=O)NN2CCCCC2)nc(-c2ccc(Cl)cc2Cl)n1-c1ccc(Br)cc1	Cannabinoid receptor 2 (Homo sapiens)	6.31

Each compound below has a reported value. Please supply its pKi.
1. N#Cc1c(C(=O)NN2CCCCC2)nc(-c2ccc(Cl)cc2Cl)n1-c1ccc(Cl)cc1
2. Cc1c(C(=O)NCc2ccc(C(F)(F)F)cc2)nc(-c2ccc(Cl)cc2Cl)n1-c1ccc(Cl)cc1

1: 5.80; 2: 5.70

====

# target under test: Cannabinoid receptor 2 (Homo sapiens, UniProt P34972)
# Sequence (P34972 whole entry): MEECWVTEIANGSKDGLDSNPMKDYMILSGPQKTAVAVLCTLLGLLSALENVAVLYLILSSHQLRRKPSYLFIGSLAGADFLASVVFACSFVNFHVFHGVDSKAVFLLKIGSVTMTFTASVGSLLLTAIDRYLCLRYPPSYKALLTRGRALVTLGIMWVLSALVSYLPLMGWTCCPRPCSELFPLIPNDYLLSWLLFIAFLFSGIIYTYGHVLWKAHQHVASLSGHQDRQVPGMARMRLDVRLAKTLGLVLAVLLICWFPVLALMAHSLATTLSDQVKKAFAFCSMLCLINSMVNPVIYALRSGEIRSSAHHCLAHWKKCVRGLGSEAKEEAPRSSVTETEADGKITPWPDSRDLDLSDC
Give measured Ki for each item. Keep answers brief.

Study these solved cases before continuing.
query smiles	value kind	result
Cc1c(C(=O)NN2CCCCC2)nc(-c2ccc(Cl)cc2)n1-c1ccc(Cl)cc1Cl	Ki	208 nM
O=C(NN1CCCCC1)c1nc(-c2ccc(Cl)cc2Cl)n(-c2ccc(Cl)cc2)c1CF	Ki	906 nM
Cc1c(C(=O)NC2CCCCCC2)nc(-c2ccc(Cl)cc2Cl)n1-c1ccc(Cl)cc1	Ki	349 nM

Please examine the following record next.
Find the recorded Ki belonging to Cc1c(C(=O)N2CCc3ccccc3C2)nc(-c2ccc(Cl)cc2Cl)n1-c1ccc(Cl)cc1 and report it.
696 nM
